Recorded Kd values for a group of binders are listed next.
SYSTEM: T1, extracellular domain of rhesus monkey BCMA (rhesus monkey, UniProt F7FFA0 1-53)
T1 construct: extracellular domain; also called RhBCMA
T1 sequence (F7FFA0 entry or part of it): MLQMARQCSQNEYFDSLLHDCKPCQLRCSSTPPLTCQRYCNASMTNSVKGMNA
ASSAY NOTES: Octet BLI; Fab 200 nM
RECORDED ENDPOINT: Kd (nM)

1. AB200-R1H32-R2Vk7 (Fab, V domains shown) VH: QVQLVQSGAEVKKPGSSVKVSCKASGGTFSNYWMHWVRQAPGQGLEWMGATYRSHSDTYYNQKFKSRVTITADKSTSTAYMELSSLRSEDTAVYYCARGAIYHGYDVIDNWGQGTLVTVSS VL: DIQMTQSPSSLSASVGDRVTITCRASQSISSYINWYQQKPGKAPKLLIYATSNIQSGVPSRFSGSGSGTDFTLTISSLQPEDFATYYCQQFRKLPWSFGQGTKLEIKR    5
2. AB200-R1H32-R2Vk37 (Fab, V domains shown) VH: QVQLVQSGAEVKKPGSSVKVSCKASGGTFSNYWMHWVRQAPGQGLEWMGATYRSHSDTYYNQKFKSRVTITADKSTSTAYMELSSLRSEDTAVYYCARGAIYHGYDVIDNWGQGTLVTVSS VL: DIQMTQSPSSLSASVGDRVTITCRASQSISSYINWYQQKPGKAPKLLIYATSNLQSGVPSRFSGSGSGTDFTLTISSLQPEDFATYYCQQYRKIPWSFGQGTKLEIKR    4.41
3. AB200-R1H32-R2Vk46 (Fab, V domains shown) VH: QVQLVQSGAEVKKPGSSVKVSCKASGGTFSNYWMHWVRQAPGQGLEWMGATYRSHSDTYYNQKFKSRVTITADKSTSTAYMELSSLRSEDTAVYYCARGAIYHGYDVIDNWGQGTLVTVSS VL: DIQMTQSPSSLSASVGDRVTITCRASQSISSYINWYQQKPGKAPKLLIYATSNLQIGVPSRFSGSGSGTDFTLTISSLQPEDFATYYCQQFRRLPWTFGQGTKLEIKR    2.98
